test system: RS4;11 cells; experiment: RS4;11 cell viability assay (CellTiter Glo); type: cell-based, human; settings: Homo sapiens, RS4-11, 48 h, 50,000 cells per well, 10% human serum, 48 hours; read-out: RS4; 11 EC50 Values
Assign labels as follows, please: t for EC50 below 10 nM; f for EC50 equal to or exceeding 10 nM.

Lab log: compare recorded EC50 with 10 nM; is it strictly lower for CN(C)CC(=O)N1CC[C@@H](Nc2ccc(S(=O)(=O)NC(=O)c3ccc(N4CCN(CC5=C(c6ccc(Cl)cc6)CC(C)(C)CC5)CC4)cc3Oc3cnc4[nH]ccc4c3)cc2[N+](=O)[O-])C1 ?
t

# TODO verify EC50 < 10 nM strictly for this compound: COCCN1CCCC(CNc2ccc(S(=O)(=O)NC(=O)c3ccc(N4CCN(CC5=C(c6ccc(Cl)cc6)CC(C)(C)CC5)CC4)cc3Oc3cnc4[nH]ccc4c3)cc2[N+](=O)[O-])C1 (stereo not shown)
f

Regarding CC1(C)CCC(CN2CCN(c3ccc(C(=O)NS(=O)(=O)c4cnc(OCC5CCOCC5)c(C#N)c4)c(Oc4cnc5[nH]ccc5c4)c3)CC2)=C(c2ccc(Cl)cc2)C1 , kindly confirm whether its EC50 is beneath 10 nM.
f

For CC1(C)CCC(CN2CCN(c3ccc(C(=O)NS(=O)(=O)c4ccc(NCC5CCCN(CC#N)C5)c([N+](=O)[O-])c4)c(Oc4cnc5[nH]ccc5c4)c3)CC2)=C(c2ccc(Cl)cc2)C1 (stereo not shown) , is the recorded EC50 below the cut-off of 10 nM?
f

Confirm or reject: EC50 of CN1CCC(F)(COc2ncc(S(=O)(=O)NC(=O)c3ccc(N4CCN(CC5=C(c6ccc(Cl)cc6)CC(C)(C)CC5)CC4)cc3Oc3cnc4[nH]ccc4c3)cc2Cl)CC1 lies strictly below 10 nM
t

Below 10 nM on EC50? Entry CC1(C)CCC(CN2CCN(c3ccc(C(=O)NS(=O)(=O)c4ccc(NC[C@H]5CN(C6COC6)CCO5)c([N+](=O)[O-])c4)c(Oc4cnc5[nH]ccc5c4)c3)CC2)=C(c2ccc(Cl)cc2)C1
t

Consider the compound O=C(NS(=O)(=O)c1ccc(OCC2(F)CCOCC2)c([N+](=O)[O-])c1)c1ccc(N2CCN(CC3=C(c4ccc(Cl)cc4)CCC4(CCCC4)C3)CC2)cc1Oc1cnc2[nH]ccc2c1 . Is its EC50 strictly less than 10 nM?
f

Hello, is EC50 of the following compound strictly smaller than 10 nM? CC1(C)CCC(CN2CCN(c3ccc(C(=O)NS(=O)(=O)c4ccc(NC[C@@H]5CCN(C6CCOCC6)C5)c([N+](=O)[O-])c4)c(Oc4cnc5[nH]ccc5c4)c3)CC2)=C(c2ccc(Cl)cc2)C1
t

State whether 10 nM exceeds EC50 recorded for CC1(C)CCC(CN2CCN(c3ccc(C(=O)NS(=O)(=O)c4ccc(N[C@H]5CC[C@H](N6CCOCC6)CC5)c([N+](=O)[O-])c4)c(Oc4cnc5[nH]ccc5c4)c3)CC2)=C(c2ccc(Cl)cc2)C1 .
f

----------
system: RS4;11 cells; assay: RS4;11 cell viability assay (CellTiter Glo); format: cell-based, human; settings: Homo sapiens, RS4-11, 48 h, 50,000 cells per well, 10% human serum, 48 hours; read-out: RS4; 11 EC50 Values;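 also: acute lymphoblastic leukemia line RS4,11, EC50 derived from percentage of viable cells after treatment relative to untreated controls, cell killing taken as a measure of Bcl-2 inhibition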
pEC50: −log10 of the molar value.
Label no (0) if pEC50 falls below 8; label yes (1) in every other case.

Determine whether this compound has pEC50 no lower than 8: CC(=O)N1CCOC(CNc2ccc(S(=O)(=O)NC(=O)c3ccc(N4CCN(CC5=C(c6ccc(Cl)cc6)CC(C)(C)CC5)CC4)cc3Oc3cnc4[nH]ccc4c3)cc2[N+](=O)[O-])C1 (stereo not shown)
yes (1)

Would you say CC1(C)CCC(CN2CCN(c3ccc(C(=O)NS(=O)(=O)c4ccc(NCCCN(CC(F)(F)F)C5CC5)c([N+](=O)[O-])c4)c(Oc4cnc5[nH]ccc5c4)c3)CC2)=C(c2ccc(Cl)cc2)C1 shows pEC50 at minimum 8?
no (0)

Say whether CC1(C)CCCC(CN2CCN(c3ccc(C(=O)NS(=O)(=O)c4ccc(NCC5CCOCC5)c([N+](=O)[O-])c4)c(Oc4cnc5[nH]ccc5c4)c3)CC2)=C1c1ccc(Cl)cc1 shows pEC50 of 8 or more.
no (0)

In plain terms: is recorded pEC50 at least 8 for CC1(C)CCC(CN2CCN(c3ccc(C(=O)NS(=O)(=O)c4ccc5ccccc5c4)c(Oc4cnc5[nH]ccc5c4)c3)CC2)=C(c2ccc(Cl)cc2)C1 ?
no (0)

Item CCN(C)C(=O)N1CCO[C@H](COc2ncc(S(=O)(=O)NC(=O)c3ccc(N4CCN(CC5=C(c6ccc(Cl)cc6)CC(C)(C)CC5)CC4)cc3Oc3cnc4[nH]ccc4c3)cc2Cl)C1 with pEC50 of 8 or above?
no (0)

Identify whether the reported pEC50 of the following compound is 8 or greater: CC1(C)CCC(CN2CCN(c3ccc(C(=O)NS(=O)(=O)c4ccc(OC[C@H]5CC[C@H](O)CC5)c(Cl)c4)c(Oc4cnc5[nH]ccc5c4)c3)CC2)=C(c2ccc(Cl)cc2)C1
no (0)

Answer whether pEC50 of CC1(C)CCC(CN2CCN(c3ccc(C(=O)NS(=O)(=O)c4ccc(N[C@@H]5CCN(C(CF)CF)C5)c([N+](=O)[O-])c4)c(Oc4cnc5[nH]ccc5c4)c3)CC2)=C(c2ccc(Cl)cc2)C1 is greater than or equal to 8.
yes (1)

# bool: pEC50 of CC1(C)CCC(CN2CCN(c3ccc(C(=O)NS(=O)(=O)c4cnc(N[C@H]5CC[C@H](N6CCOCC6)CC5)c(C#N)c4)c(Oc4cnc5[nH]ccc5c4)c3)CC2)=C(c2ccc(Cl)cc2)C1 >= 8
no (0)

Form field: pEC50 at least 8? Entry: CC1(C)CCC(CN2CCN(c3ccc(C(=O)NS(=O)(=O)c4ccc(NCC5CN(CC#N)CCO5)c([N+](=O)[O-])c4)c(Oc4cnc5[nH]ccc5c4)c3)CC2)=C(c2ccc(Cl)cc2)C1 (stereo not shown)
yes (1)

Textbook exercise: given the entry CC1(C)CCC(CN2CCN(c3ccc(C(=O)NS(=O)(=O)c4ccc(N[C@H]5CCN(C6CC6)C5)c([N+](=O)[O-])c4)c(Oc4cnc5[nH]ccc5c4)c3)CC2)=C(c2ccc(Cl)cc2)C1 , state whether its pEC50 is greater than or equal to 8.
no (0)

Quick check: does CN1CCC(Nc2ccc(S(=O)(=O)NC(=O)c3ccc(N4CCN(CC5=C(c6ccc(Cl)cc6)CC(C)(C)CC5)CC4)cc3Oc3ccc4[nH]ccc4c3)cc2[N+](=O)[O-])CC1 have pEC50 greater than or equal to 8?
no (0)

Test whether the compound CC1(C)CCC(CN2CCN(c3ccc(C(=O)NS(=O)(=O)c4ccc(NC5CCN(C6CC6)CC5)c(S(=O)(=O)C(F)(F)F)c4)c(Oc4cnc5[nH]ccc5c4)c3)CC2)=C(c2ccc(Cl)cc2)C1 records pEC50 of 8 or higher.
no (0)

Quick check: does CC1(C)CCC(CN2CCN(c3ccc(C(=O)NS(=O)(=O)c4ccc(NCC5CCN(S(C)(=O)=O)C5)c([N+](=O)[O-])c4)c(Oc4cnc5[nH]ccc5c4)c3)CC2)=C(c2ccc(Cl)cc2)C1 (stereo not shown) have pEC50 greater than or equal to 8?
no (0)

Confirm if pEC50 reported for the compound CC1(C)CCC(CN2CCN(c3ccc(C(=O)NS(=O)(=O)c4ccc(OC[C@H]5CC[C@H](O)CC5)c([N+](=O)[O-])c4)c(Oc4cnc5[nH]ccc5c4)c3)CC2)=C(c2ccc(Cl)cc2)C1 is 8 or above.
yes (1)

Could you please find out whether CC1(C)CCC(CN2CCN(c3ccc(C(=O)NS(=O)(=O)c4ccc(NCC5CCCN(S(C)(=O)=O)C5)c([N+](=O)[O-])c4)c(Oc4cnc5[nH]ccc5c4)c3)CC2)=C(c2ccc(Cl)cc2)C1 (stereo not shown) has pEC50 that meets 8 or exceeds it?
no (0)
